System: Fer (mouse);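 note: 11-residue human phosphosite peptides and single-mutation variants displayed on the E. coli surface, counted by deep sequencing, each peptide's frequency after selection divided by its frequency in the unselected input library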;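 note: frequency after pTyr selection over input frequency; kinase dosed for 20-30% of maximal phosphorylation in three min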
PROCEDURE_TEXT: phosphorylation enrichment, bacterial display (enrichment ratio); higher = better substrate or ligand; peptides without Tyr show the background
Returns one of YES or NO; YES when phosphorylation enrichment is >= 0.8.

sequence_text=TENAGYYFRVS tested_target="Fer (mouse)" label=NO
sequence_text="MSFDRYMAVCH [OR2A5_Y123_I126V_YF]" tested_target="Fer (mouse)" label=NO
sequence_text="KNKLNYTLPQD [NRAP_Y523]" tested_target="Fer (mouse)" label=NO
sequence_text="YSNVLYRPRGP [TMIGD2_Y197_A202P]" tested_target="Fer (mouse)" label=YES
sequence_text="YADPYYDYEIE [ZC3H18_Y372]" tested_target="Fer (mouse)" label=YES
sequence_text="AALKLYHVSDS [VIL1_Y256]" tested_target="Fer (mouse)" label=NO
sequence_text="PTEAQYRFIYM [PTPN11_Y511_Q506P]" tested_target="Fer (mouse)" label=YES
